Data provenance: patent KR20130140557A

# tgt: Fc
# test: mono phage ELISA, Fc coated 100 ng/well, anti-M13-HRP
Recorded OD 490 nm (Fc) values for a group of binders are listed next.

- binder: "모노 파아지 클론 B10 (scFv on phage) (scFv) DVHSQVQLVESGGGLVQPGGSLRLSCAASGFIFDDYAMFWVRQVPGKGLEWVAGINWNGNGIGYGDSVRGRFIISRDNARNSLDLQMNSLRAEDTAVYYCARPSLYGGNSEFDLWGQGTLVTVSSDVHSQLVLTQPPSVSGAPGQTVTISCTGPTIGAGYDVHWYQQLPGAAPKLLIYGNLNRPSGVPDRFSGSKSGTSASLAITDLQAEDEADYYCHTYDSSLSGSWVFGGGTKLTVL"
  OD 490 nm (Fc): "0.0406 OD490"

What OD 490 nm (Fc) value was documented for this binder, 모노 파아지 클론 F2 (scFv on phage) (scFv) DVHSQVQLVESGAEVKKPGASVKVSCKASGYTFTNYYMHWVRQAPGQGLEWMGIINPSGGNTGYAQKFQGRVTMTRDMSTSTAYMELSSLRSEDTAVYYCARGLPWGENGLDVWGQGTTVTVSSDVHSQLVLTQPSSVSGAPGQTVTISCTGSSSNIGAGYDVHWYQQLPGTAPKVLIYGDSDRPSGVPDRFSGSKSATSASLAITGLQAEDEADYYCQSYDSSLSAYVFGTGTKVTVL ?
0.0405 OD490

Please do the same for 모노 파아지 클론 D2 (scFv on phage) (scFv) DVHSQVQLVESGAEVKKPGSSVKVSCKGSGDTFPNYAINWVRQAPGQGPEWMGRIIPMLGTSDYAEKFQGRVTITADKSTNTAYMGLNSLRSEDTAVYYCVKGPRYYGTDSYYLEKWGQGTMVTVSSDVHSQLVLTQPPSVSGAPGQTVTISCTGPTIGAGYDVHWYQQLPGAAPKLLIYGNLNRPSGVPDRFSGSKSGTSASLAITDLQAEDEADYYCHTYDSSLSGSWVFGGGTKLTVL as well.
0.0415 OD490

Follow-up item: 모노 파아지 클론 A7 (scFv on phage) (scFv) DVHSQMQLVESGGGLVQPGTSLRLSCAASGFKFEDYAMHWVRQAPGKGLEWVSGVSWNSGTIAYVDSVKGRFTISRDNAKNSLYLQMNSLRAEDTAVYYCARDFTYFYESSGYYAFDLWGQGTMVTVSSDVHSQLVLTQPPSVSGAPGQRVTISCTGTNSNIGAGYDVHWYQQVPGTTPKLLIYGNTNRPSGVPDRFSGSKSGTSASLAITGLQAEDGGDYYCQSFDSSLTGSVFGTGTKVTVL
0.0421 OD490
